# test_name: physchem
# experimental_context: aqueous
# Description: Aqueous solubility of the compound
Provide the reported solubility of each item.
Be sure to follow the number with its unit.

Past entries and their recorded results:
Identify solubility associated with the compound CS(=O)(=O)Oc1ccc(Oc2ccc(S(=O)(=O)CC3CS3)cc2)cc1 (stereo not drawn)
3.5 µg/mL

Identify solubility associated with the compound CC(C)CS(=O)(=O)Oc1ccc(S(=O)(=O)CC2CS2)cc1 (stereo not drawn)
230 µg/mL

Identify solubility associated with the compound CC(C)CS(=O)(=O)Oc1ccc(Oc2ccc(S(=O)(=O)CC3CS3)cc2)cc1 (stereo not drawn)
1.1 µg/mL

Identify solubility associated with the compound CS(=O)(=O)Oc1ccc(S(=O)(=O)CC2CS2)cc1 (stereo not drawn)
167 µg/mL

Identify solubility associated with the compound CCS(=O)(=O)Oc1ccc(Oc2ccc(S(=O)(=O)CC3CS3)cc2)cc1 (stereo not drawn)
4.1 µg/mL

Identify solubility associated with the compound CCS(=O)(=O)Oc1ccc(S(=O)(=O)CC2CS2)cc1 (stereo not drawn)
114 µg/mL

Identify solubility associated with the compound CCCS(=O)(=O)Oc1ccc(S(=O)(=O)CC2CS2)cc1 (stereo not drawn)
96 µg/mL

More entries:
Identify solubility associated with the compound CCCS(=O)(=O)Oc1ccc(Oc2ccc(S(=O)(=O)CC3CS3)cc2)cc1 (stereo not drawn)
4 µg/mL

###

Provide the reported inhibition of each item.
# test_target: Stromelysin-1 (Homo sapiens, UniProt P08254)
# Sequence (P08254 100-477 limits assumed): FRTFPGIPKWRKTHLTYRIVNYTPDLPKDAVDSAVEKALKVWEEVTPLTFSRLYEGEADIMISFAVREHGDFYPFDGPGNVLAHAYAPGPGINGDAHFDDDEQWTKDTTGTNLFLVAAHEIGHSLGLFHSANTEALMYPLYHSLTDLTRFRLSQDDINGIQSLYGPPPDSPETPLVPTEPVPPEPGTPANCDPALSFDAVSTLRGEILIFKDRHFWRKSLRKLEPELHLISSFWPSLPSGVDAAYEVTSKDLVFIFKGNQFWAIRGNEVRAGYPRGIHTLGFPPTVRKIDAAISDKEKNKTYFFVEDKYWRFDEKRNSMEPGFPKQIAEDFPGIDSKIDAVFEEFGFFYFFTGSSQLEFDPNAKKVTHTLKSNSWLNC
# test_name: Inhibition of human recombinant MMP3 catalytic domain at 200 uM by substrate hydrolysis based fluorescence spectrophotometry
Answers are plain numbers, in %.

Past entries and their recorded results:
Identify inhibition associated with the molecule CC(C)CS(=O)(=O)Oc1ccc(S(=O)(=O)CC2CS2)cc1 (centres undefined)
25

Identify inhibition associated with the molecule CS(=O)(=O)Oc1ccc(S(=O)(=O)CC2CS2)cc1 (centres undefined)
29

Identify inhibition associated with the molecule CCCS(=O)(=O)Oc1ccc(S(=O)(=O)CC2CS2)cc1 (centres undefined)
58

More entries:
Identify inhibition associated with the molecule CCS(=O)(=O)Oc1ccc(S(=O)(=O)CC2CS2)cc1 (centres undefined)
62

###

Provide the reported pKi of each item.
# test_target: Matrix metalloproteinase-14 (Homo sapiens)
# test_name: Inhibition of human recombinant MMP14 catalytic domain by substrate hydrolysis based fluorescence spectrophotometry
One number for each entry, as −log10 of the molar value.

Past entries and their recorded results:
Identify pKi associated with the compound O=S(=O)(CC1CS1)c1ccc(Oc2ccccc2)cc1 (stereo not drawn)
6.96

Identify pKi associated with the compound CC(C)CS(=O)(=O)Oc1ccc(S(=O)(=O)CC2CS2)cc1 (stereo not drawn)
4.70

Identify pKi associated with the compound CC(C)CS(=O)(=O)Oc1ccc(Oc2ccc(S(=O)(=O)CC3CS3)cc2)cc1 (stereo not drawn)
6.10

Quick one: give me pKi for each item below, same order please.
1. CCCS(=O)(=O)Oc1ccc(Oc2ccc(S(=O)(=O)CC3CS3)cc2)cc1 (stereo not drawn)
2. CS(=O)(=O)Oc1ccc(S(=O)(=O)CC2CS2)cc1 (stereo not drawn)
3. CCCS(=O)(=O)Oc1ccc(S(=O)(=O)CC2CS2)cc1 (stereo not drawn)
4. CCS(=O)(=O)Oc1ccc(Oc2ccc(S(=O)(=O)CC3CS3)cc2)cc1 (stereo not drawn)
5. CCS(=O)(=O)Oc1ccc(S(=O)(=O)CC2CS2)cc1 (stereo not drawn)

6.62
6.32
4.49
6.44
4.96

###

# test_target: Matrix metalloproteinase-14 (Homo sapiens, UniProt P50281)
# test_name: Inhibition of human recombinant MMP14 catalytic domain assessed as dissociation rate constant by substrate hydrolysis based fluorescence spectrophotometry
measured_property: log10 of Activity (log10 of the value in ×10⁻³ /s)
Response schema: value (number) is log10 of Activity in units of ×10⁻³ /s.

Quick one: give me log10 of Activity for each item below, same order please.
1. CCCS(=O)(=O)Oc1ccc(Oc2ccc(S(=O)(=O)CC3CS3)cc2)cc1 (configuration not stated)
2. CC(C)CS(=O)(=O)Oc1ccc(S(=O)(=O)CC2CS2)cc1 (configuration not stated)
3. CS(=O)(=O)Oc1ccc(S(=O)(=O)CC2CS2)cc1 (configuration not stated)
4. CCS(=O)(=O)Oc1ccc(S(=O)(=O)CC2CS2)cc1 (configuration not stated)
5. CCS(=O)(=O)Oc1ccc(Oc2ccc(S(=O)(=O)CC3CS3)cc2)cc1 (configuration not stated)

1. 0.26
2. 0.23
3. -0.70
4. 0.20
5. 0.95

Quick one: give me log10 of Activity for each item below, same order please.
1. CCCS(=O)(=O)Oc1ccc(S(=O)(=O)CC2CS2)cc1 (configuration not stated)
2. CC(C)CS(=O)(=O)Oc1ccc(Oc2ccc(S(=O)(=O)CC3CS3)cc2)cc1 (configuration not stated)

0.18
0.30

###

The following are reported Ki results, target or system Matrilysin (Homo sapiens).
One number for each entry, in µM.

Past entries and their recorded results:
Identify Ki associated with the compound CCCS(=O)(=O)Oc1ccc(S(=O)(=O)CC2CS2)cc1 (centres undefined)
35

Identify Ki associated with the compound CCS(=O)(=O)Oc1ccc(S(=O)(=O)CC2CS2)cc1 (centres undefined)
26

Identify Ki associated with the compound CC(C)CS(=O)(=O)Oc1ccc(S(=O)(=O)CC2CS2)cc1 (centres undefined)
120

Here's the next entry for you.
Identify Ki associated with the compound CS(=O)(=O)Oc1ccc(S(=O)(=O)CC2CS2)cc1 (centres undefined)
11
